# credit: patent US11464749B2

Test system: Enterobacter cloacae
Test: Broth microdilution MIC (Example 11)
Settings: ATCCBAA2468

{"compound": "CC(C)(O/N=C(\\C(=O)N[C@@H]1C(=O)N2C(C(=O)[O-])=C(C[n+]3ccccc3)CS[C@H]12)c1csc(N)n1)C(=O)O", "tested_on": "Enterobacter cloacae", "MIC": "> 32 µg/mL"}
{"compound": "C[C@@H](O)[C@H]1C(=O)N2C(C(=O)O)=C(S[C@@H]3CN[C@H](C(=O)N(C)C)C3)[C@H](C)[C@H]12 [Meropenem, reference compound]", "tested_on": "Enterobacter cloacae", "MIC": "> 64 µg/mL"}
{"compound": "CC(S)C(C)S.[Bi] (stereo not shown)", "tested_on": "Enterobacter cloacae", "MIC": "2 µg/mL"}
{"compound": "C[C@H]1COc2c(N3CCN(C)CC3)c(F)cc3c(=O)c(C(=O)O)cn1c23 [Levofloxacin, reference compound]", "tested_on": "Enterobacter cloacae", "MIC": "64 µg/mL"}

---

Test system: S. pneumoniae
Test: Broth microdilution MIC (Example 11)
Conditions: Streptococcus pneumoniae, S. pneumoniae MMX 880; Lev^R SXT^R CC^R Ery^R Pen^R
Each item that follows carries a reported MIC.

{"compound": "CN[C@H](CC(C)C)C(=O)N[C@H]1C(=O)N[C@@H](CC(N)=O)C(=O)N[C@H]2C(=O)N[C@H]3C(=O)N[C@H](C(=O)N[C@H](C(=O)O)c4cc(O)cc(O)c4-c4cc3ccc4O)[C@H](O)c3ccc(c(Cl)c3)Oc3cc2cc(c3O[C@@H]2O[C@H](CO)[C@@H](O)[C@H](O)[C@H]2O[C@H]2C[C@](C)(N)[C@H](O)[C@H](C)O2)Oc2ccc(cc2Cl)[C@H]1O", "bound_type": "=", "MIC / µg/mL": 0.5}
{"compound": "CC(S)C(C)S.[Bi] (stereo not shown)", "bound_type": "=", "MIC / µg/mL": 0.5}
{"compound": "CC1(C)S[C@@H]2[C@H](NC(=O)Cc3ccccc3)C(=O)N2[C@H]1C(=O)O", "bound_type": "=", "MIC / µg/mL": 2}
{"compound": "C[C@@H](O)[C@H]1C(=O)N2C(C(=O)O)=C(S[C@@H]3CN[C@H](C(=O)N(C)C)C3)[C@H](C)[C@H]12 [Meropenem, reference compound]", "bound_type": "=", "MIC / µg/mL": 0.5}
{"compound": "C[C@H]1COc2c(N3CCN(C)CC3)c(F)cc3c(=O)c(C(=O)O)cn1c23 [Levofloxacin, reference compound]", "bound_type": "=", "MIC / µg/mL": 8}
{"compound": "CC[C@H]1OC(=O)[C@H](C)[C@@H](O[C@H]2C[C@@](C)(OC)[C@@H](O)[C@H](C)O2)[C@H](C)[C@@H](O[C@@H]2O[C@H](C)C[C@H](N(C)C)[C@H]2O)[C@](C)(O)C[C@@H](C)C(=O)[C@H](C)[C@@H](O)[C@]1(C)O", "bound_type": ">", "MIC / µg/mL": 8}
{"compound": "CCC[C@@H]1C[C@@H](C(=O)N[C@@H]([C@H]2O[C@H](SC)[C@H](O)[C@@H](O)[C@H]2O)[C@H](C)Cl)N(C)C1", "bound_type": ">", "MIC / µg/mL": 8}
